molecular target: sigma-1 receptor (Homo sapiens); construct: sigma-1 receptor expressed in Jurkat cells; endogenous in cells; assay: Displacement of [3H](+)pentazocine from sigma-1 receptor expressed in Jurkat cells
Sequence (Q99720 whole entry): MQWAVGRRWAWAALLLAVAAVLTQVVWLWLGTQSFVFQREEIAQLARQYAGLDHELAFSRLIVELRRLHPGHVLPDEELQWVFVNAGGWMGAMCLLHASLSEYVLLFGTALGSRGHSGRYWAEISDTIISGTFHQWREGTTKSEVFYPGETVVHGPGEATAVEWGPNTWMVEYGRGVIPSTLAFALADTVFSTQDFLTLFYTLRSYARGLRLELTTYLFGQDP
testReadout: pIC50
// returns pIC50 (minus log10 of molar concentration), number only

Input: Recorded pIC50 for CCN(CC)CCOC(=O)c1ccc(N)cc1 , please?
Output: 5.37

---

biological target: σ2-receptor (Homo sapiens)
Sequence (Q5BJF2 whole entry, species assumed): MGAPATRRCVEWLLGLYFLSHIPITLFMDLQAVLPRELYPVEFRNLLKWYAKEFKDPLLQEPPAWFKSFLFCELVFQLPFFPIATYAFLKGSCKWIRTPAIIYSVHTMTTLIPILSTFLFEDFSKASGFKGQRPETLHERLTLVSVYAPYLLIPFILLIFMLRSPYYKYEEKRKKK
testReadout: IC50

Input: # get_value(readout= IC50, system= σ2-receptor (Homo sapiens)) for CCN(CC)CCOC(=O)c1ccc(N)cc1 [Procaine]
Output: > 10 µM

---

tested on: PC12 cells; assay: Reversal of Aβ1-42-induced ATP depletion (ATPLite-M assay); details: compound 100 μM, 24 h pre-incubation; Aβ1-42 10 μM, 24 h
Label scheme for ATP decrease induced by Aβ1-42, Aβ1-42 control = 100% reduction: lower than 70% is NO, 70% and above is YES.

Input: Would you say CCN(CC)CCOC(=O)c1ccc(N)cc1 shows ATP decrease induced by Aβ1-42, Aβ1-42 control = 100% reduction at minimum 70%?
Output: YES

Input: Would you say CCN(CC)CCNC(=O)c1ccc(N)cc1 [Procainamide] shows ATP decrease induced by Aβ1-42, Aβ1-42 control = 100% reduction at minimum 70%?
Output: NO

Input: Would you say CCCCNc1ccc(C(=O)OCCN(C)C)cc1 shows ATP decrease induced by Aβ1-42, Aβ1-42 control = 100% reduction at minimum 70%?
Output: NO

Input: Would you say CC1=CCC23OC2(C)CCC2C(CN4CCN(C(=O)c5ccccc5)CC4)C(=O)OC2C13 (stereo not shown) shows ATP decrease induced by Aβ1-42, Aβ1-42 control = 100% reduction at minimum 70%?
Output: YES

Input: Would you say CC(=O)OC1CC(O)C2(C)C(OC(C)=O)C3C(CC(C)C12)OC(=O)C3CN1CCN(C(=O)c2ccccc2)CC1 (stereo not shown) shows ATP decrease induced by Aβ1-42, Aβ1-42 control = 100% reduction at minimum 70%?
Output: YES

Input: Would you say CC(=O)OC1CC(OC(C)=O)C2(C)C(O)C3C(CC(C)C12)OC(=O)C3CN1CCN(C(=O)c2ccccc2)CC1 (stereo not shown) shows ATP decrease induced by Aβ1-42, Aβ1-42 control = 100% reduction at minimum 70%?
Output: YES

Origin of values: patent US20090286876A1
